These measurements were taken from ChEMBL document CHEMBL2150968.

Experiment: Stability of the compound in human serum for 4 hrs by ITLC-SG analysis
Format: ADME, cell-free

compound_structure_string	remaining at 4 h
N=C(N)NCCC[C@@H]1NC(=O)[C@H](CCCCNC(=S)Nc2ccc(CN3CCN4CCN(CC3)CC(=O)[O][Al]([18F])[O]C(=O)C4)cc2)NC(=O)[C@@H](Cc2ccc(O)cc2)NC(=O)[C@H](CC(=O)O)NC(=O)CNC1=O	> 95%
